Reference source: the PETadex activity labels (doi:10.1038/s41467-025-61599-z)

# Substrate: PET
# measurement-description: Proxy for plastic degradation [Released monomer concentration (HPLC/LC-MS) (MHET+TPA)]
# condition-set: pH 9; 60 °C; part of the chain shown
measurement-name: Proxy for plastic degradation (µM)
Write the number in µM without appending the unit.

Here is how some sequences turned out for Proxy for plastic degradation.
[
  {
    "seq": "QDNSDGRYRPEGRTFARGAANLFDDRLFEARTYVTGTDVA",
    "test-value": 16.1
  },
  {
    "seq": "GDPPAVRTVPAAAAAPVDWSKTGPHQVKVDKADAHTIYRPSDLG",
    "test-value": 16.4
  },
  {
    "seq": "VTKGPDPSAAEVAKVTGSYAVTETKVDDAASTKFGPATV",
    "test-value": 16.3
  },
  {
    "seq": "CFGGGDPDPSPEGQALGVPGDFEICSYEANLENDGYASARMTYPCDLS",
    "test-value": 10.5
  },
  {
    "seq": "FGNNGGGGGGEDNVFAEPGDFDVVTEPGGRDCTIFRPEQLGDDH",
    "test-value": 14.9
  }
]

**Query** Using the record for TPEFKPQPGPLSIKSAAAISFRVEDQAKDLQIRVTYPDGPGPWP , report its Proxy for plastic degradation.
**Result** 17.2

**Query** Further, for NNPGGGGGTAPDTGTGFPGVSNFSASGSFATTSGSAGASCTVFRPST ?
**Result** 9.47

###

// reported Proxy for plastic degradation for each item listed
# Substrate: PET
# measurement-description: Proxy for plastic degradation [Released monomer concentration (HPLC/LC-MS) (MHET+TPA)]
# condition-set: pH 9; 40 °C; part of the chain shown
Your answer is read as µM, so omit the unit and give the number.

Answered cases to consult:
[
  {
    "seq": "GDPPAVRTVPAAAAAPVDWSKTGPHQVKVDKADAHTIYRPSDLG",
    "units-label": "µM",
    "Proxy for plastic degradation": 12.6
  },
  {
    "seq": "TPEFKPQPGPLSIKSAAAISFRVEDQAKDLQIRVTYPDGPGPWP",
    "units-label": "µM",
    "Proxy for plastic degradation": 12.8
  },
  {
    "seq": "NNPGGGGGTAPDTGTGFPGVSNFSASGSFATTSGSAGASCTVFRPST",
    "units-label": "µM",
    "Proxy for plastic degradation": 9.03
  },
  {
    "seq": "DPWDAPGPYATAVQIGAVNTLYYPRDIASSPRRHPVIVWGNGT",
    "units-label": "µM",
    "Proxy for plastic degradation": 13.4
  },
  {
    "seq": "AGFEKGPDPTTASVTADRGSYDIAQVDVPKGSGTGFADGTIYY",
    "units-label": "µM",
    "Proxy for plastic degradation": 14.2
  }
]

**Query** For the sequence DEIGQAPTAANITGDGSFSTSSSAIFGQSGFGGGTAYYPNTAGKYPVVAF , what Proxy for plastic degradation is on record?
**Result** 759

**Query** How about QTNPYARGPNPTAASLEASAGPFTVRSFTVSRPSGYGAGTVYY ?
**Result** 64.7

**Query** Now the same for VTKGPDPSAAEVAKVTGSYAVTETKVDDAASTKFGPATV
**Result** 12.8

###

# Substrate: PET
# measurement-description: Proxy for plastic degradation [Released monomer concentration (HPLC/LC-MS) (MHET+TPA)]
# condition-set: pH 9; 50 °C; part of the chain shown
The reader will find reported Proxy for plastic degradation values listed item by item below.
Give a bare numeral; the unit µM is implied.

**Query** Item QDNSDGRYRPEGRTFARGAANLFDDRLFEARTYVTGTDVA has what recorded Proxy for plastic degradation?
**Result** 15.5

###

# Substrate: PET
# measurement-description: Proxy for plastic degradation [Released monomer concentration (HPLC/LC-MS) (MHET+TPA)]
# condition-set: pH 9; 30 °C; part of the chain shown
measurement-name: Proxy for plastic degradation (µM)
Entry rule: numbers only, all in µM.

The following sequences have reported results that may help.
[
  {
    "seq": "VTKGPDPSAAEVAKVTGSYAVTETKVDDAASTKFGPATV",
    "Proxy for plastic degradation [µM]": 15
  },
  {
    "seq": "FGNNGGGGGGEDNVFAEPGDFDVVTEPGGRDCTIFRPEQLGDDH",
    "Proxy for plastic degradation [µM]": 14
  },
  {
    "seq": "NNPGGGGGTAPDTGTGFPGVSNFSASGSFATTSGSAGASCTVFRPST",
    "Proxy for plastic degradation [µM]": 8.31
  },
  {
    "seq": "CFGGGDPDPSPEGQALGVPGDFEICSYEANLENDGYASARMTYPCDLS",
    "Proxy for plastic degradation [µM]": 9.91
  },
  {
    "seq": "LDSPYQRGPDPTEASVKAIAGPFAVDQVKATGHTGFGSGTIFYP",
    "Proxy for plastic degradation [µM]": 11.2
  }
]

**Query** Given the sequence DPWDAPGPYATAVQIGAVNTLYYPRDIASSPRRHPVIVWGNGT , what is its reported Proxy for plastic degradation?
**Result** 13

**Query** Entry QTNPYARGPNPTAASLEASAGPFTVRSFTVSRPSGYGAGTVYY please
**Result** 17.3

**Query** Another: GDPPAVRTVPAAAAAPVDWSKTGPHQVKVDKADAHTIYRPSDLG
**Result** 12.7

**Query** Ok, now AGFEKGPDPTTASVTADRGSYDIAQVDVPKGSGTGFADGTIYY
**Result** 14.6

###

# Substrate: pNPB
# measurement-description: Proxy for plastic degradation [Absorbance @ 430nm] (min⁻¹)
# condition-set: pH 8; part of the chain shown
measurement-name: Proxy for plastic degradation
# answer = number (no unit)

Previously resolved entries follow.
[
  {
    "seq": "FGNNGGGGGGEDNVFAEPGDFDVVTEPGGRDCTIFRPEQLGDDH",
    "Proxy for plastic degradation": 23500
  },
  {
    "seq": "NNPGGGGGTAPDTGTGFPGVSNFSASGSFATTSGSAGASCTVFRPST",
    "Proxy for plastic degradation": 25400
  },
  {
    "seq": "QTNPYARGPNPTAASLEASAGPFTVRSFTVSRPSGYGAGTVYY",
    "Proxy for plastic degradation": 24900
  },
  {
    "seq": "DEIGQAPTAANITGDGSFSTSSSAIFGQSGFGGGTAYYPNTAGKYPVVAF",
    "Proxy for plastic degradation": 34300
  }
]

We now examine a further sequence.
**Query** State the recorded Proxy for plastic degradation for this entry: LDSPYQRGPDPTEASVKAIAGPFAVDQVKATGHTGFGSGTIFYP
**Result** 41400

###

Examples of sequences with documented Proxy for plastic degradation follow.
# Substrate: PET
# measurement-description: Proxy for plastic degradation [Released monomer concentration (HPLC/LC-MS) (MHET+TPA)]
# condition-set: pH 9; 55 °C; part of the chain shown
// note: answer is a bare numeric in µM

Answered examples (3):
[
  {
    "seq": "VTKGPDPSAAEVAKVTGSYAVTETKVDDAASTKFGPATV",
    "measurement-name": "Proxy for plastic degradation",
    "test-value": 16.2
  },
  {
    "seq": "CFGGGDPDPSPEGQALGVPGDFEICSYEANLENDGYASARMTYPCDLS",
    "measurement-name": "Proxy for plastic degradation",
    "test-value": 10.1
  },
  {
    "seq": "DEIGQAPTAANITGDGSFSTSSSAIFGQSGFGGGTAYYPNTAGKYPVVAF",
    "measurement-name": "Proxy for plastic degradation",
    "test-value": 596
  }
]

**Query** Which Proxy for plastic degradation is reported for this sequence? AGFEKGPDPTTASVTADRGSYDIAQVDVPKGSGTGFADGTIYY
**Result** 14.4

**Query** Item: GDPPAVRTVPAAAAAPVDWSKTGPHQVKVDKADAHTIYRPSDLG
**Result** 16

**Query** Follow-up entry: ESETTAAAVSSRYYEETGPHAVTVEQGGPDHTLYYPSDLGAGGT
**Result** 15.5

**Query** What about this sequence? NNPGGGGGTAPDTGTGFPGVSNFSASGSFATTSGSAGASCTVFRPST
**Result** 9.09

**Query** Same for FGNNGGGGGGEDNVFAEPGDFDVVTEPGGRDCTIFRPEQLGDDH
**Result** 14.4

###

Below: a set of entries, each annotated with reported Proxy for plastic degradation.
# Substrate: PET
# measurement-description: Proxy for plastic degradation [Released monomer concentration (HPLC/LC-MS) (MHET+TPA)]
# condition-set: pH 9; 40 °C; part of the chain shown
Response body: numeric value in µM, unit text excluded.

[
  {
    "seq": "FGNNGGGGGGEDNVFAEPGDFDVVTEPGGRDCTIFRPEQLGDDH",
    "units-label": "µM",
    "Proxy for plastic degradation": 13.8
  },
  {
    "seq": "CFGGGDPDPSPEGQALGVPGDFEICSYEANLENDGYASARMTYPCDLS",
    "units-label": "µM",
    "Proxy for plastic degradation": 9.79
  },
  {
    "seq": "ESETTAAAVSSRYYEETGPHAVTVEQGGPDHTLYYPSDLGAGGT",
    "units-label": "µM",
    "Proxy for plastic degradation": 14.7
  },
  {
    "seq": "LDSPYQRGPDPTEASVKAIAGPFAVDQVKATGHTGFGSGTIFYP",
    "units-label": "µM",
    "Proxy for plastic degradation": 22.8
  }
]

Now let's try a different one.
**Query** Name the reported Proxy for plastic degradation value associated with the sequence QDNSDGRYRPEGRTFARGAANLFDDRLFEARTYVTGTDVA
**Result** 15.5
